Values from patent US8586751B2

system.tested: human recombinant Btk (Homo sapiens)
assay.explanation: Human Recombinant Btk Enzyme Assay (LLE_BTK)
pIC50: −log10 of the molar value.
metric.name: pIC50

CS(=O)(=O)c1ccc(Nc2nc(N3CCC[C@@H](NC(=O)c4ccccc4)C3)c(F)cc2C(N)=O)cc1
8.70

P = CN1CCN(c2ccc(Nc3nc(N4CCC[C@@H](N(C)C(=O)c5ccccc5)C4)c(F)cc3C(N)=O)cc2)CC1
Q = COc1cccc(Nc2nc(N3CCC[C@@H](NC(=O)Nc4nc(C)cs4)C3)ccc2C(N)=O)c1
R = CN1CCN(C(=O)c2ccc(Nc3nc(N4CCC[C@@H](NC(=O)Nc5nccs5)C4)c(F)cc3C(N)=O)cc2)CC1
Task: Order these by pIC50, descending, and give the full ranking. Labels, ranked as asked.
Output: R, P, Q

---

system.tested: human recombinant Btk (Homo sapiens, UniProt Q06187)
Sequence (Q06187 whole entry): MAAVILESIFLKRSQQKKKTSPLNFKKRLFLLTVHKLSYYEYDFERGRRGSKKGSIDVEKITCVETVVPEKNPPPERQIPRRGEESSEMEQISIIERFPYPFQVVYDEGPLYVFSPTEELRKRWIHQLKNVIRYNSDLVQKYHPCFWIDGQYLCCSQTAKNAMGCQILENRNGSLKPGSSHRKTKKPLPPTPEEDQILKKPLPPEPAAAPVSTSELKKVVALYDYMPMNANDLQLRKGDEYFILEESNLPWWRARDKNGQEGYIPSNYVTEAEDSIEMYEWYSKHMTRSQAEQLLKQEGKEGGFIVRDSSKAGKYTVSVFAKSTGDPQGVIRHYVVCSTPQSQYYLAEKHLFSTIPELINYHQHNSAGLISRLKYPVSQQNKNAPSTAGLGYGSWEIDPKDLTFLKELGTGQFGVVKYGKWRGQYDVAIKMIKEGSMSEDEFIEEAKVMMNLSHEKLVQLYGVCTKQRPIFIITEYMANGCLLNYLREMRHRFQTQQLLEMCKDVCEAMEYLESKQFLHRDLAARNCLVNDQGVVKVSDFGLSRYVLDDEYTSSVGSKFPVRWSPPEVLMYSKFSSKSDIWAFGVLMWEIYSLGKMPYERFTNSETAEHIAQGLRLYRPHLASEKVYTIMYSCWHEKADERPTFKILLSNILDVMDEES
assay.explanation: Human Recombinant Btk Enzyme Assay (LLE_BTK)
Experimental: Human Recombinant Btk Enzyme Assay To V-bottom 384-well plates were added test compounds, human recombinant Btk (1 nM, Invitrogen Corporation), fluoresceinated peptide (1.5 μM), ATP (20 μM), and assay buffer (20 mM HEPES pH 7.4, 10 mM MgCl2, 0.015% Brij35 and 4 mM DTT in 1.6% DMSO), with a final volume of 30 μL. […] The reaction mixture was analyzed on the Caliper LABCHIP® 3000 (Caliper, Hopkinton, Mass.) by electrophoretic separation of the fluorescent substrate and phosphorylated product. […]
pIC50: −log10 of the molar value.
metric.name: pIC50

NC(=O)c1ccc(N2CCCCC2)nc1Nc1ccc(C(=O)Nc2ccccc2)cc1
6.11
COc1ccc([C@H](C)N[C@H]2CCC[C@@H](c3nc(Nc4ccc(N5CCOCC5)cc4)c(C(N)=O)cc3F)C2)cc1
5.66

A = CC(C)(C)OC(=O)c1ccc(Nc2nc(N3CCCCC3)ccc2C(N)=O)cc1
B = NC(=O)c1cc(F)c(N2CCC[C@@H](NC(=O)Nc3nccs3)C2)nc1Nc1ccc(N2CCOCC2)c(F)c1
Task: Of A and B , which carries the smaller reported pIC50 figure? Could you answer with the label of the item you picked?
Output: A

---

Tested on: Ramos B cells with beta-lactamase reporter gene under control of an NFAT response element
assay.explanation: NFAT-bla RA1 Reporter Assay (Ramos-NFAT)
Type: cell-based, human
run.conditions: Homo sapiens, Ramos, read-out: IMM Ramos-NFAT (IC50)
metric.name: IC50 (nM)

Here are 4 compounds together with their reported answers.
CC(=O)N1CCc2c(cccc2-c2ccc(C(N)=O)c(Nc3ccc(-c4cnco4)cc3)n2)C1
10000
CCN1CCN(c2ccc(Nc3nc(N4CCC[C@@H](NC(=O)c5ccccc5)C4)ccc3C(N)=O)cc2)CC1
100
CN1CCN(c2ccc(Nc3nc(N4CCC[C@@H](NC(=O)Nc5nccs5)C4)ccc3C(N)=O)cc2)CC1
60
CS(=O)(=O)c1ccc(Nc2nc(N3CCCC4(CC(c5ccccc5)=NO4)C3)ccc2C(N)=O)cc1 (stereo not shown)
160

1 = CN(C)CCc1ccc(Nc2nc(N3CCC[C@@H](NC(=O)Nc4nccs4)C3)c(F)cc2C(N)=O)cc1
2 = CN1CCC(c2ccc(Nc3nc(N4CCC[C@@H](NC(=O)c5ccc(F)cc5)C4)c(F)cc3C(N)=O)cc2)CC1
Task: Please let me know which one, 1 or 2 , has a lower measured IC50 value. // caller expects the label of the chosen entry
Output: 1
(1: 30 nM, 2: 200 nM)
